method_description: qHTS of pediatric cancer cell lines to identify multiple opportunities for drug repurposing: Primary screen for RD cells (AID 1347104); also: nearly all actives have a fitted effect of over 55% in size
run_parameters: RD rhabdomyosarcoma viability, CellTiter-Glo luminescence, 48 h; series mostly up to 46 µM
Inconclusive results are not listed. Activity calls are given as the source filed them. Calls follow the shape of the dose curve; as a rule, active = well fitted cell-killing curve with a large enough effect; inconclusive = small, poorly fitted or top-dose-only effect; inactive = flat fitted curve, though single readings scatter.
Respond using exactly one of the listed classes: active, inactive

Record excerpt, results attached:
c1ccc(CNc2nc(NCc3ccccc3)c3ccccc3n2)cc1 ... active
CCC[C@H]1C[C@H](C(=O)N[C@@H]([C@@H]2O[C@@H](SC)[C@@H](O)[C@@H](O)[C@@H]2O)[C@H](C)Cl)N(C)C1 ... inactive
COc1ccc2c(c1OC)C(=O)OC2[C@H]1c2c(cc3c(c2OC)OCO3)CCN1C (some centres undefined) ... active
O=C(CN1C(=O)C2(CCCC2)NC[C@H]1c1cc(F)cc(F)c1)Nc1ccc2c(c1)C[C@@]1(C2)C(=O)Nc2ncccc21 ... inactive

## Input Identify the outcome logged in this assay for the compound shown: `CNC(=O)Nc1ccc(-c2nc(N3CC4CCC(C3)O4)c3cnn(C4CCC5(CC4)OCCO5)c3n2)cc1`
## Output active

## Input Query `CC(=O)O[C@H]1C[C@@H]2CC[C@H]3[C@H]4C[C@H]([N+]5(C)CCCCC5)[C@@H](OC(C)=O)[C@@]4(C)CC[C@@H]3[C@@]2(C)C[C@H]1N1CCCCC1` next
## Output inactive

## Input Next: `CCC(C=C[C@@H]1OC(=O)C=C[C@H]1C)=C[C@H](C)CC=CC(C)=C[C@@H](C)C(=O)[C@@H](C)[C@H](O)[C@@H](C)CC(C)=CC(=O)O`
## Output active

## Input Try this compound next: `CC(C=CC(=O)NO)=C[C@@H](C)C(=O)c1ccc(N(C)C)cc1`
## Output active

## Input Try this compound too: `CC(C=CC=C(C)C=CC1=C(C)CCCC1(C)C)=CC=CC=C(C)C=CC=C(C)C=CC1=C(C)CCCC1(C)C`
## Output active

----------
method_description: Quantitative High-Throughput drug screen in 47 multiple myeloma cell lines against the NCATS MIPE library collection: KMS12PE_JCRB cell viability assay (AID 1918972); also: nearly all actives have a fitted effect of over 30% in size
run_parameters: KMS12PE myeloma viability, CellTiter-Glo ATP, 48 h; series mostly up to 45.8 µM
Results filed as inconclusive are left out. Active and inactive are the calls of the source. Calls follow the shape of the dose curve; as a rule, active = well fitted cell-killing curve with a large enough effect; inconclusive = small, poorly fitted or top-dose-only effect, or effect the other way; inactive = no such curve, though single readings can be large or run the other way.
Field 'call' accepts active, inactive

Example entries begin here.
CC(C)(N)c1ccc(-c2nc3ccccc3nc2-c2ccccc2)cc1 ... active
O=C(NCc1ccccc1)[C@H](Cc1ccccc1)NC(=O)[C@@H]1O[C@@H]1C(=O)NCCc1ccc(O)cc1 ... active
Cc1onc(-c2ccccc2)c1C(=O)N[C@@H]1C(=O)N2[C@@H](C(=O)O)C(C)(C)S[C@@H]12 ... inactive
OCCN1C[C@H](O)[C@@H](O)[C@H](O)[C@@H]1CO ... inactive

## Input Look up the recorded call for `Cc1cc(Nc2ncc3c(n2)N(C)C(=O)N(c2cc(NC(=O)c4cccc(C(F)(F)F)c4)ccc2C)C3)n(C)n1` in this test.
## Output active

----------
Test system: PC15
method_description: qHTS profiling for inhibitors of Plasmodium falciparum proliferation (AID 504749); also: nearly all actives have a fitted effect of over 60% in size
run_parameters: P. falciparum in erythrocytes, SYBR Green DNA, 72 h; series mostly up to 28.7 µM
Inconclusive results are not listed. Activity calls are given as the source filed them. The call rests on the fitted dose curve; in most records, active means well fitted inhibition curve with a large enough effect; inconclusive means small, poorly fitted or top-dose-only effect; inactive means flat fitted curve, though single readings scatter.
Outcome (select one): active, inactive

Solved cases below.
CCCCCCCCCCCC(CC1OC(=O)C1CCCCCC)OC(=O)C(CC(C)C)NC=O (stereo not given) ... active
COc1cccc2c1C(=O)c1c(O)c3c(c(O)c1C2=O)C[C@@](O)(C(=O)CO)C[C@@H]3O[C@H]1C[C@H](N)[C@H](OC2CCCCO2)[C@H](C)O1 (stereo not given in full) ... active
CCC(C(=O)O)C1CCC(C)C(C(C)C(O)C(C)C(=O)C(CC)C2OC3(C=CC(O)[C@@]4(CC[C@](C)(C5CC[C@@](O)(CC)C(C)O5)O4)O3)C(C)CC2C)O1 (stereo not given in full) ... active
OCC(O)C(O)C(O)CO (stereo not given) ... inactive

## Input So what was the verdict on `COc1ccc([C@@H]2CNC(=O)C2)cc1OC1CCCC1` in this test?
## Output inactive

----------
method_description: qHTS of pediatric cancer cell lines to identify multiple opportunities for drug repurposing: Primary screen for SK-N-MC cells (AID 1347093)
run_parameters: SK-N-MC viability, CellTiter-Glo luminescence, 48 h; series mostly up to 46 µM
Records with an inconclusive call do not appear. Activity calls are given as the source filed them. Calls come from the whole dose curve; as a rule, active = well fitted cell-killing curve with a large enough effect; inconclusive = small, poorly fitted or top-dose-only effect; inactive = no such curve, though single readings can be large or run the other way.
The reply should be one of these categories: YES for active, NO for inactive

CC(=O)NC(CS)C(=O)O (configuration not stated) ... NO
COc1cccc2c1C(=O)c1c(O)c3c(c(O)c1C2=O)C[C@@](O)(C(=O)CO)C[C@@H]3O[C@H]1C[C@H](N)[C@@H](O)[C@H](C)O1 ... YES
CCNC(=O)Nc1ccc(-c2nc3c(c(N4CCOC[C@H]4C)n2)CCN(C2COC2)C3)cc1 ... YES
NC(=O)N1CCC(CC(=O)N2CCC([C@H]3c4ncc(Br)cc4CCc4cc(Cl)cc(Br)c43)CC2)CC1 ... YES
O=C(O)c1ccc(Nc2ncc3c(n2)-c2ccc(Cl)cc2C(c2c(F)cccc2F)=NC3)cc1 ... YES

## Input Please state the recorded outcome for this compound: `C[C@H]1[C@@H](OC(=O)CCC(=O)O)O[C@@H]2O[C@@]3(C)CC[C@@H]4[C@H](C)CC[C@@H]1[C@@]24OO3`
## Output YES

## Input Note, next up: `CCS(=O)(=O)Nc1ccc2[nH]c(O)c(C(=Nc3ccc(CN4CCCCC4)cc3)c3ccccc3)c2c1`
## Output YES

## Input Subsequent entry: `FC(F)(F)c1ccc(Nc2nc3ccc(Oc4ccnc(-c5ncc(C(F)(F)F)[nH]5)c4)cc3[nH]2)cc1`
## Output YES

## Input Also check COc1cc(C)c(Sc2cnc(NC(=O)c3ccc(CNC(C)C(C)(C)C)cc3)s2)cc1C(=O)N1CCN(C(C)=O)CC1 (configuration not stated)
## Output YES

## Input Can you check `Nc1ccc(C(=O)Nc2cccc(-c3nc(N4CCOCC4)c4oc5ncccc5c4n3)c2)cn1` next?
## Output YES

## Input Also, CC(C(C)N1CC(=O)NC(=O)C1)N1CC(=O)NC(=O)C1 (configuration not stated) please.
## Output YES

## Input And the next one, `COC(=O)[C@@H]1[C@H]2C[C@@H]3c4[nH]c5ccccc5c4CCN3C[C@@H]2CC[C@@H]1O` ?
## Output YES

## Input Try the compound `c1coc(CNc2ncnc3nc[nH]c23)c1`
## Output NO

## Input Ok, now `Cn1cnc(=N)c2[nH]cnc21`
## Output YES

## Input Another compound to look at: `N#Cc1c(C2CCNCC2)cc(-c2c(O)cccc2OCC2CC2)nc1N`
## Output YES

## Input Please give the result for `CCCCCN=C(N)NN=Cc1c[nH]c2ccc(OC)cc12` too.
## Output YES

## Input Note, next up: `CNC(=O)Nc1ccc(-c2nc(N3CC4CCC(C3)O4)c3cnn(C4CCC5(CC4)OCCO5)c3n2)cc1`
## Output YES

## Input Repeat with `Nc1nc(N)c2nc(-c3cccc(O)c3)c(-c3cccc(O)c3)nc2n1`
## Output YES

## Input Note, next up: `CCc1c(O)cc(O)c(C(=O)c2ccc(OCCN3CCOCC3)c(OC)c2)c1CC(=O)N(CCOC)CCOC`
## Output YES

## Input // next record C[C@@H]1C(=O)O[C@H]2CC34[C@H]5C[C@@H](C(C)(C)C)C36[C@H](OC(=O)[C@@H]6O)O[C@@]4(C(=O)O5)[C@]21O (some centres not stated)
## Output NO

## Input Same read-out for `C#C[C@]1(O)CC[C@@H]2[C@@H]3CCc4cc(O)ccc4[C@H]3CC[C@@]21C` ?
## Output YES

## Input Next up: `O=C(CCCCCCC(=O)Nc1cccnc1)NO`
## Output YES

## Input What do you get for `Cc1cnc(NC(=O)Nc2cc(Br)c(C)cc2OC[C@@H]2CNCCO2)cn1` ?
## Output YES

## Input Now try `COC(=O)[C@@H]1CC2=CC(=O)CC[C@]2(C)[C@@]23O[C@@H]2C[C@@]2(C)[C@H](CC[C@@]24CCC(=O)O4)[C@@H]13` .
## Output NO

## Input Continue with `O=C(NNC(=O)c1ccc(CNS(=O)(=O)c2ccc(F)c(Cl)c2)cc1)c1ccccc1`
## Output NO

## Input Next up: `CCOC(=O)[C@H](CCc1ccccc1)N[C@@H](C)C(=O)N1[C@@H](C(=O)O)C[C@H]2CCC[C@@H]21`
## Output YES

## Input Next entry: CC(N[C@H]1CCCC[C@H]1NC(=O)c1ccc(Cl)cc1)c1cccc2ccccc12 (some centres not stated)
## Output YES
